# Tested on: Candida albicans
# PROTOCOL SUMMARY: Antimicrobial activity against Candida albicans measured per disk
# Assay type: functional
Reported MID values for a set of compounds
Reply with just the number (in µg/mL).

Answered cases to consult:
# COMPOUND STRING, OBS VALUE
rows = [
    ("C=Cc1nccc2c1[nH]c1c(O)cccc12", 15),
    ("Cc1nccc2c1[nH]c1ccccc12", 1.9),
    ("COc1ccc(Br)c2c1[nH]c1c(C)nccc12", 7.5),
    ("CCc1nccc2c1[nH]c1ccccc12", 1.9),
    ("C=Cc1nccc2c1[nH]c1c(OC)cccc12", 15),
    ("C=Cc1[nH]ccc2c3ccccc3nc1-2", 1.9),
]

[in] For the record CCc1nccc2c1[nH]c1c(O)cccc12 , what value of MID is listed for Candida albicans?
[out] 30

[in] For the record CCc1nccc2c1[nH]c1c(OC)cccc12 , what value of MID is listed for Candida albicans?
[out] 7.5
